solubility change mitosis (log2) for assorted substances
Tested on: HeLa Kyoto;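 further: synchronized HeLa Kyoto cells (double thymidine block for G1/S, nocodazole release for mitosis), protein amounts in NP-40 versus SDS lysates quantified by mass spectrometry, three biological replicates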
Assay: solubility change mitosis vs G1/S (difference of NP-40 vs SDS log2 ratios) (log2 ratio difference); higher = more soluble in mitosis
reported endpoint: solubility change mitosis (log2)

- MAAAEEGCSVGAEADRELEELLESALDDFDKAKPSPAPPSTTTAPDASGPQKRSPGDTAKDALFASQEKFFQELFDSELASQATAEFEKAMKELAEEEPHLVEQFQKLSEAAGRVGSDMTSQQEFTSCLKETLSGLAKNATDLQNSSMSEEELTKAMEGLGMDEGDGEGNILPIMQSIMQNLLSKDVLYPSLKEITEKYPEWLQSHRESLPPEQFEKYQEQHSVMCKICEQFEAETPTDSETTQKARFEMVLDLMQQLQDLGHPPKELAGEMPPGLNFDLDALNLSGPPGASGEQCLIM [G3V3G9]: -0.158
- MQNYKYDKAIVPESKNGGSPALNNNPRRSGSKRVLLICLDLFCLFMAGLPFLIIETSTIKPYHRGFYCNDESIKYPLKTGETINDAVLCAVGIVIAILAIITGEFYRIYYLKKSRSTIQNPYVAALYKQVGCFLFGCAISQSFTDIAKVSIGRLRPHFLSVCNPDFSQINCSEGYIQNYRCRGDDSKVQEARKSFFSGHASFSMYTMLYLVLYLQARFTWRGARLLRPLLQFTLIMMAFYTGLSRVSDHKHHPSDVLAGFAQGALVACCIVFFVSDLFKTKTTLSLPAPAIRKEILSPVDIIDRNNHHNMM [PLPP3]: -0.139
- PRKACB: -0.134
- MSEVSCKKRDDYLEWPEYFMAVAFLSAQRSKDPNSQVGACIVNSENKIVGIGYNGMPNGCSDDVLPWRRTAENKLDTKYPYVCHAELNAIMNKNSTDVKGCSMYVALFPCNECAKLIIQAGIKEVIFMSDKYHDSDEATAARLLFNMAGVTFRKFIPKCSKIVIDFDSINSRPSQKLQ [DCTD]: 0.0667
